# Tested on: A549 cell line
# Experiment summary: Cytotoxicity, MTT assay, A549 cells
# Test settings: Homo sapiens, A549, 24 h, read-out: % Cytotoxicity A549 (100 μΜ)
Metric name: cytotoxicity at 100 µM (%)
Give the value, in units of %, as a plain number.

**Query** Under A549 cell line: cytotoxicity at 100 µM value of Cn1c(=O)c(C(=O)NCc2cn(Cc3ccccc3)nn2)c(O)c2ccccc21 ?
**Result** 24.2

**Query** Under A549 cell line: cytotoxicity at 100 µM value of C#CCNC(=O)c1c(O)c2ccccc2n(CCCCCCCC)c1=O ?
**Result** 33.7

**Query** Under A549 cell line: cytotoxicity at 100 µM value of O=C(NCc1cn(Cc2ccccc2)nn1)c1c(O)c2ccccc2n(Cc2ccccc2)c1=O ?
**Result** 49.9

**Query** Under A549 cell line: cytotoxicity at 100 µM value of C#CCNC(=O)c1c(O)c2ccccc2n(C)c1=O ?
**Result** 0

**Query** Under A549 cell line: cytotoxicity at 100 µM value of COc1cc(C2Oc3cc([C@H]4Oc5cc(O)cc(O)c5C(=O)[C@@H]4O)ccc3OC2CO)ccc1O (stereo partly shown) [Silibinin, silibinin, reference compound] ?
**Result** 57.4

**Query** Under A549 cell line: cytotoxicity at 100 µM value of C#CCNC(=O)c1c(O)c2ccccc2n(CCCc2ccccc2)c1=O ?
**Result** 0

**Query** Under A549 cell line: cytotoxicity at 100 µM value of O=C(NCc1cn(Cc2ccccc2)nn1)c1c(O)c2ccccc2n(CCCc2ccccc2)c1=O ?
**Result** 12.5

---

Answer each item with its documented cytotoxicity at 100 µM.
# Test system: A375 cell line
# Experiment summary: Cytotoxicity, MTT assay, A375 cells
# Test settings: Homo sapiens, A-375, 24 h, read-out: % Cytotoxicity A375 (100 μΜ)
Give the value, in units of %, as a plain number.

**Query** Please look up its cytotoxicity at 100 µM: CC(C)=CCn1cc(CNC(=O)c2c(O)c3ccccc3n(CC=Cc3ccccc3)c2=O)nn1 [5h]
**Result** 0

**Query** Please look up its cytotoxicity at 100 µM: C#CCNC(=O)c1c(O)c2ccccc2n(CCCc2ccccc2)c1=O [4f]
**Result** 0

**Query** Please look up its cytotoxicity at 100 µM: CCn1c(=O)c(C(=O)NCc2cn(Cc3ccccc3)nn2)c(O)c2ccccc21 [5c]
**Result** 0

**Query** Please look up its cytotoxicity at 100 µM: COc1cc(C2Oc3cc([C@H]4Oc5cc(O)cc(O)c5C(=O)[C@@H]4O)ccc3OC2CO)ccc1O (stereo partly shown) [Silibinin, silibinin, reference compound]
**Result** 12.6
